// provenance: the RNAGym collection of RNA variant scans (doi:10.1073/pnas.2313332121)

B1: TPR t1 (parent)
chain: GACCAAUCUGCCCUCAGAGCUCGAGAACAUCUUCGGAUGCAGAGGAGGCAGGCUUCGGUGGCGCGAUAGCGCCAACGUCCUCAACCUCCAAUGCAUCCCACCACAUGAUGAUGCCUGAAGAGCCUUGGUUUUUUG

Variants of: B1
Assay: polymerase ribozyme fitness, log enrichment relative to wild type (log ratio); higher = more active; in vitro selection for triplet polymerase activity
polymerase ribozyme fitness (log ratio) vs -3: at or above is class 1, below is class 0.

Completed entries (count: 5):
Variant Key: G45U G52A C72U G110C C123U
Label Value: class 0

Variant Key: G57U U106G G128C
Label Value: class 0

Variant Key: C28G C53A C72A
Label Value: class 0

Variant Key: C94U U125G
Label Value: class 1

Variant Key: C40U U59A U116A
Label Value: class 0

For this variant, is measured polymerase ribozyme fitness (log ratio) -3 or higher? A6U G47A C72G A75G
class 1

Again, but for C28U G48A C53G C89U
class 0

Follow-up item: A2C C73U C76G U112G
class 1

Now the same for C11A A50G U126A
class 0

And then C4A G93C A111U , what is it?
class 0

What about this variant? U14G G44C G71U U78A
class 0
